# STUDY_SYSTEM: A1 receptor (Mesocricetus auratus)
# Construct: endogenous in cells; host or cells: DDT1 (DDT1 MF-2) hamster vas deferens smooth muscle cells
# Sequence (A0A1U8BVR4 1-326): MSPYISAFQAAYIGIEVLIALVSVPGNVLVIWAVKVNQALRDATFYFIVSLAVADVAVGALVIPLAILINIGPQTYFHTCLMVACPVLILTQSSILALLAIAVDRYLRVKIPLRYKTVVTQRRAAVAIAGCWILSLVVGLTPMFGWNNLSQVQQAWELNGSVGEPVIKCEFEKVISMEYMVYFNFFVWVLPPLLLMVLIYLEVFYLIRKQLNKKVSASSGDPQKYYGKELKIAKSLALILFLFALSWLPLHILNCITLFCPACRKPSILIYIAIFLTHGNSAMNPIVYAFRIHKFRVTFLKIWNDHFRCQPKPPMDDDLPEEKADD
# EXPERIMENTAL_PROTOCOL: Competitive binding assay, DDT1 cell membranes, [3H]CCPA
# Design: species or system hamster
# CONDITION_NOTES: [3H]CCPA 2 nM, DDT1 cell membranes; read-out: Ki-DDT1 cell membrane

{"COMPOUND": "CNC(=O)SC[C@H]1O[C@@H](n2cnc3c(N[C@@H]4CCOC4)ncnc32)[C@H](O)[C@@H]1O", "VALUE_UNITS": "nM", "Ki": 36}
{"COMPOUND": "O=C(NC1CCCC1O)OCC1OC(n2cnc3c(N[C@@H]4CCOC4)ncnc32)C(O)C1O (some centres unmarked)", "VALUE_UNITS": "nM", "Ki": 2190}
{"COMPOUND": "O=C(NC1CCCC1OCc1ccccc1)OCC1OC(n2cnc3c(N[C@@H]4CCOC4)ncnc32)C(O)C1O (some centres unmarked)", "VALUE_UNITS": "nM", "Ki": 4240}
{"COMPOUND": "CN(C)C(=S)OC[C@H]1O[C@@H](n2cnc3c(N[C@@H]4CCOC4)ncnc32)[C@H](O)[C@@H]1O", "VALUE_UNITS": "nM", "Ki": 245}
{"COMPOUND": "O=C(NC1CCCC1)OCC1OC(n2cnc3c(NC4CCOC4)nc(Cl)nc32)C(O)C1O (centres unmarked)", "VALUE_UNITS": "nM", "Ki": 380}
{"COMPOUND": "OC1C(CNC(=S)NC2CCCC2)OC(n2cnc3c(NC4CCOC4)ncnc32)C1O (centres unmarked)", "VALUE_UNITS": "nM", "Ki": 357}
{"COMPOUND": "O=C(NC1CCCC1)OCC1OC(n2cnc3c(N[C@@H]4CCOC4)ncnc32)C(O)C1O (some centres unmarked)", "VALUE_UNITS": "nM", "Ki": 32}
{"COMPOUND": "CCOC(=O)CCNC(=O)OCC1OC(n2cnc3c(N[C@@H]4CCOC4)ncnc32)C(O)C1O (some centres unmarked)", "VALUE_UNITS": "nM", "Ki": 3150}

* * *

# STUDY_SYSTEM: A1 adenosine receptor (Mesocricetus auratus, UniProt A0A1U8BVR4)
# Construct: endogenous in cells; host or cells: DDT1 (DDT1 MF-2) hamster vas deferens smooth muscle cells
# Sequence (A0A1U8BVR4 1-326): as above
# EXPERIMENTAL_PROTOCOL: [35S]GTPγS binding assay, A1-agonist stimulated
# Type: biochemical, hamster
# CONDITION_NOTES: […], agonist stimulated [35S]GTPγS binding, CPA = 100%
# label = bin(measured Emax), where bins are low group (below 50%), middle group (50% to below 90%), high group (90% or more)

{"MOLECULE": "O=C(NCC1OC(n2cnc3c(N[C@@H]4CCOC4)ncnc32)C(O)C1O)OC1CCCC1 (some centres unmarked) [Compound 70]", "STUDY_SYSTEM": "A1 adenosine receptor (Mesocricetus auratus, UniProt A0A1U8BVR4)", "ASSIGNED_LABEL": "middle group"}
{"MOLECULE": "OC1C(CNC(=S)NC2CCCC2)OC(n2cnc3c(NC4CCOC4)ncnc32)C1O (centres unmarked) [Compound 78]", "STUDY_SYSTEM": "A1 adenosine receptor (Mesocricetus auratus, UniProt A0A1U8BVR4)", "ASSIGNED_LABEL": "high group"}
{"MOLECULE": "CCOC(=O)C1C2CCC(C2)C1NC(=O)OCC1OC(n2cnc3c(N[C@@H]4CCOC4)ncnc32)C(O)C1O (some centres unmarked) [Compound 36]", "STUDY_SYSTEM": "A1 adenosine receptor (Mesocricetus auratus, UniProt A0A1U8BVR4)", "ASSIGNED_LABEL": "low group"}
{"MOLECULE": "COC(=S)NCC1OC(n2cnc3c(N[C@@H]4CCOC4)ncnc32)C(O)C1O (some centres unmarked) [Compound 71]", "STUDY_SYSTEM": "A1 adenosine receptor (Mesocricetus auratus, UniProt A0A1U8BVR4)", "ASSIGNED_LABEL": "high group"}
{"MOLECULE": "C=CCNC(=O)OC[C@H]1O[C@@H](n2cnc3c(N[C@@H]4CCOC4)ncnc32)[C@H](O)[C@@H]1O [Compound 41]", "STUDY_SYSTEM": "A1 adenosine receptor (Mesocricetus auratus, UniProt A0A1U8BVR4)", "ASSIGNED_LABEL": "low group"}
{"MOLECULE": "CNC(=O)SC[C@H]1O[C@@H](n2cnc3c(N[C@@H]4CCOC4)ncnc32)[C@H](O)[C@@H]1O [Compound 22]", "STUDY_SYSTEM": "A1 adenosine receptor (Mesocricetus auratus, UniProt A0A1U8BVR4)", "ASSIGNED_LABEL": "high group"}
{"MOLECULE": "COC(=O)CNC(=O)OCC1OC(n2cnc3c(N[C@@H]4CCOC4)ncnc32)C(O)C1O (some centres unmarked) [Compound 43]", "STUDY_SYSTEM": "A1 adenosine receptor (Mesocricetus auratus, UniProt A0A1U8BVR4)", "ASSIGNED_LABEL": "middle group"}
{"MOLECULE": "O=C(NC1CCCC1O)OCC1OC(n2cnc3c(N[C@@H]4CCOC4)ncnc32)C(O)C1O (some centres unmarked) [Compound 62]", "STUDY_SYSTEM": "A1 adenosine receptor (Mesocricetus auratus, UniProt A0A1U8BVR4)", "ASSIGNED_LABEL": "low group"}
{"MOLECULE": "CNC(=O)OC[C@H]1O[C@@H](n2cnc3c(N[C@@H]4CCOC4)ncnc32)[C@H](O)[C@@H]1O [Compound 6]", "STUDY_SYSTEM": "A1 adenosine receptor (Mesocricetus auratus, UniProt A0A1U8BVR4)", "ASSIGNED_LABEL": "low group"}
{"MOLECULE": "OC1CCCC1NC(=S)OCC1OC(n2cnc3c(N[C@@H]4CCOC4)ncnc32)C(O)C1O (some centres unmarked) [Compound 63]", "STUDY_SYSTEM": "A1 adenosine receptor (Mesocricetus auratus, UniProt A0A1U8BVR4)", "ASSIGNED_LABEL": "high group"}
{"MOLECULE": "OC1C(COC(=S)NCc2ccccc2)OC(n2cnc3c(N[C@@H]4CCOC4)ncnc32)C1O (some centres unmarked) [Compound 54]", "STUDY_SYSTEM": "A1 adenosine receptor (Mesocricetus auratus, UniProt A0A1U8BVR4)", "ASSIGNED_LABEL": "high group"}
{"MOLECULE": "CNC(=S)SCC1OC(n2cnc3c(NC4CCOC4)ncnc32)C(O)C1O (centres unmarked) [Compound 74]", "STUDY_SYSTEM": "A1 adenosine receptor (Mesocricetus auratus, UniProt A0A1U8BVR4)", "ASSIGNED_LABEL": "high group"}
{"MOLECULE": "CCOC(=O)C1C2C=CC(C2)C1NC(=O)OCC1OC(n2cnc3c(N[C@@H]4CCOC4)ncnc32)C(O)C1O (some centres unmarked) [Compound 35]", "STUDY_SYSTEM": "A1 adenosine receptor (Mesocricetus auratus, UniProt A0A1U8BVR4)", "ASSIGNED_LABEL": "middle group"}
{"MOLECULE": "O=C(NC1CCC1)OCC1OC(n2cnc3c(N[C@@H]4CCOC4)ncnc32)C(O)C1O (some centres unmarked) [Compound 39]", "STUDY_SYSTEM": "A1 adenosine receptor (Mesocricetus auratus, UniProt A0A1U8BVR4)", "ASSIGNED_LABEL": "middle group"}
{"MOLECULE": "O=C(N[C@H]1CCC[C@@H]1O)OC[C@H]1O[C@@H](n2cnc3c(N[C@@H]4CCOC4)ncnc32)[C@H](O)[C@@H]1O [Compound 61]", "STUDY_SYSTEM": "A1 adenosine receptor (Mesocricetus auratus, UniProt A0A1U8BVR4)", "ASSIGNED_LABEL": "middle group"}
{"MOLECULE": "CCCCNC(=O)OCC1OC(n2cnc3c(N[C@@H]4CCOC4)ncnc32)C(O)C1O (some centres unmarked) [Compound 27]", "STUDY_SYSTEM": "A1 adenosine receptor (Mesocricetus auratus, UniProt A0A1U8BVR4)", "ASSIGNED_LABEL": "low group"}
